- System Name: UniProt:Q92918
- Experimental Protocol: FRET Assay for HPK1 (MAP4K1): one step binding assay, displacement of labeled tracer
- Assay Conditions: 1 μM compound; FRET ratio 665/620, percent of control
Field 'label' (enum: met / not met). Set to met when inhibition at 1 µM is strictly under 70%; else not met.

Molecule	Discrete Label
C/C(Nc1ccn(CCC(C)(C)O)n1)=C1/C(=O)Nc2cnc(-c3cnccc3C)cc21 [Example 111]	not met
COc1cccc(F)c1-c1cc2c(cn1)NC(=O)/C2=C(/C)Nc1cnn(C[C@H](C)O)c1 [Example 173]	met
C/C(Nc1cnn(CC[C@H](C)O)c1)=C1/C(=O)Nc2cnc(-c3cnccc3C)cc21 [Example 176]	not met
C/C(Nc1cnn(C2CCOCC2)c1)=C1/C(=O)Nc2cnc(-c3cnccc3C)cc21 [Example 57]	not met
COc1cccc(F)c1-c1cc2c(cn1)NC(=O)/C2=C(/C)Nc1ccc(N(C)C)nc1 [Example 117]	met
COc1ccncc1-c1cc2c(cn1)NC(=O)/C2=C(/C)Nc1ccn(C(C)(C)C#N)n1 [Example 95]	not met

###

- System Name: UniProtKB Q92918
- Experimental Protocol: FRET Assay for HPK1 (MAP4K1): one step binding assay, displacement of labeled tracer
- Assay Conditions: 10 μM compound; FRET ratio 665/620, percent of control
Please assign 0.0 whenever inhibition at 10 µM is at or above 70%, and 1.0 whenever it is below.

Given Smiles	System Name	Discrete Label
C/C(Nc1cnn(C[C@H](C)O)c1)=C1/C(=O)Nc2cnc(-c3cnccc3C)cc21	UniProtKB Q92918	0.0
C/C(Nc1cnn(C)c1)=C1/C(=O)Nc2cnc(-c3cncc(F)c3C)cc21	UniProtKB Q92918	0.0
C/C(Nc1cnn(C)c1)=C1/C(=O)Nc2ccc(-c3cnccc3C)cc21	UniProtKB Q92918	0.0
C/C(Nc1ccn(C(C)(C)C(N)=O)n1)=C1/C(=O)Nc2cnc(-c3cnccc3C)cc21	UniProtKB Q92918	1.0
C/C(Nc1ccn(CCC(C)(C)O)n1)=C1/C(=O)Nc2cnc(-c3cnccc3C)cc21	UniProtKB Q92918	0.0
C/C(Nc1ccc(OC2CCN(C(=O)C3CC3)CC2)nc1)=C1/C(=O)Nc2cnc(-c3cnccc3C)cc21	UniProtKB Q92918	1.0
CCS(=O)(=O)n1nc(N/C(C)=C2\C(=O)Nc3cnc(-c4cnccc4C)cc32)cc1C	UniProtKB Q92918	0.0
COc1cccc(F)c1-c1cc2c(cn1)NC(=O)/C2=C(/C)Nc1cnn([C@@H](C)C#N)c1	UniProtKB Q92918	0.0
COc1cccc(F)c1-c1cc2c(cn1)NC(=O)/C2=C(/C)Nc1cnn(C(C)(C)C#N)c1	UniProtKB Q92918	0.0

###

- System Name: HPK1 (MAP4K1) (Homo sapiens, UniProt Q92918)
- Sequence (Q92918 whole entry): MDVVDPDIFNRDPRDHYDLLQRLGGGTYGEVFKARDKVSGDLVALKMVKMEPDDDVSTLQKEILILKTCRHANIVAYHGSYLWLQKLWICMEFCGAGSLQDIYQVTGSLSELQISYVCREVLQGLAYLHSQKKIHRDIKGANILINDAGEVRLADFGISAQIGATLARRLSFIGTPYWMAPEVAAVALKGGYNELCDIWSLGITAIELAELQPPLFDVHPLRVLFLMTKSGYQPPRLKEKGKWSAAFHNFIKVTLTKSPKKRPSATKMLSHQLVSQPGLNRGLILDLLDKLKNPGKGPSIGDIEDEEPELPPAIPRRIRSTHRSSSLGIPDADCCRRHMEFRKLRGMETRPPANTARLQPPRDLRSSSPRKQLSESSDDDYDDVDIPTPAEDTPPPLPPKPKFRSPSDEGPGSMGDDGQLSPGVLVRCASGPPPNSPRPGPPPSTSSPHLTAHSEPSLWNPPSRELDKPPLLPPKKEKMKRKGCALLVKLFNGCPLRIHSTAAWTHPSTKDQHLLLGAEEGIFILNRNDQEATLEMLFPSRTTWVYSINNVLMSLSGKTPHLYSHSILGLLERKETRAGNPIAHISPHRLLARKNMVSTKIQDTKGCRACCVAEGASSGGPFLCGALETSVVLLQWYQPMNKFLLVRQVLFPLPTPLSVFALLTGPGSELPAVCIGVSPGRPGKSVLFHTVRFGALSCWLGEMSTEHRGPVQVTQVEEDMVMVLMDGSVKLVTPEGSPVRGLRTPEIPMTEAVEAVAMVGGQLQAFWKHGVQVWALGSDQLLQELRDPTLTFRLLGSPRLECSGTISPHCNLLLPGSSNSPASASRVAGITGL
- Experimental Protocol: FRET Assay for HPK1 (MAP4K1): one step binding assay, displacement of labeled tracer
- Assay Conditions: 10 μM compound; FRET ratio 665/620, percent of control
# key: entry, value: inhibition at 10 µM

Given Smiles	inhibition at 10 µM [%]
C/C(Nc1ccn(C(F)F)n1)=C1/C(=O)Nc2cnc(-c3cnccc3C)cc21	82.2
C/C(Nc1ccn([C@H](C)CO)n1)=C1/C(=O)Nc2cnc(-c3cnccc3C)cc21	80.2
C/C(Nc1cc2n(n1)CC(=O)N(C(C)C)C2)=C1/C(=O)Nc2cnc(-c3cnccc3C)cc21	81.7
C/C(Nc1ccc(N2CCOCC2)cn1)=C1/C(=O)Nc2cnc(-c3cnccc3C)cc21	80
C/C(Nc1cc(C)n(C(C)C)n1)=C1/C(=O)Nc2cnc(-c3cnccc3C)cc21	79.4
C/C(Nc1cc(C)n(C)n1)=C1/C(=O)Nc2cnc(-c3cnccc3C)cc21	82.2
C/C(Nc1ccc(N2CCOCC2)cc1)=C1/C(=O)Nc2cnc(-c3cnccc3C)cc21	78.2
C/C(Nc1cc(C)n(C)n1)=C1/C(=O)Nc2cnc(-c3c(C)cccc3F)cc21	82.2
C/C(Nc1ncc(C)s1)=C1/C(=O)Nc2cnc(-c3cnccc3C)cc21	77.8
C/C(Nc1cc(C)n(C[C@H](C)O)n1)=C1/C(=O)Nc2cnc(-c3c(C)cccc3F)cc21	78.9
